system: SR; test: NCI tumour cell line growth inhibition, 48 h
Calls of active or inactive are those of the source. No stated cut-off is given here; in the data, active = GI50 up to about 1.1 µM and inactive = higher.
Use one of these outcomes when replying: active, inactive

Observe how each entry below is paired with its result.
COc1ccc(C(=O)C(c2ccc(OC)cc2)C2C(=O)Oc3ccccc32)cc1 (configuration not stated) :: inactive
Cc1ccccc1Nc1nc2c(s1)C(=O)c1ccccc1C2=O :: inactive
CCCCc1cc2c(C)cc(=O)oc2c(O)c1O :: inactive
CN(C)c1ccc(/C=C/c2ccc3ccccc3[n+]2C)cc1 :: inactive
C/C(=N\N=C(/S)SCc1ccccc1)c1ccccn1 :: active
Cc1cc2nc(CC(C(F)(F)F)C(F)(F)F)oc2cc1C :: active
O=C1Nc2ccc(Br)cc2/C1=N/Nc1ccc([N+](=O)[O-])cc1 :: inactive
CCOC(=O)C1=C(Nc2ccc(Cl)cc2Cl)OC/C1=N\NS(=O)(=O)c1ccc(C)cc1 :: inactive

Call for entry Cc1ccc(C2=Nc3cccc4cccc(c34)N2)cc1 :
inactive

Call for entry CCn1c2ccccc2c2ccc(C3C(C(=O)OC)=C(C)NC(C)=C3C(=O)OC)cc21 :
inactive

Call for entry COC(=O)Nc1nc2cc(S(=O)(=O)n3nnc4ccccc43)ccc2[nH]1 :
inactive

----------
system: OVCAR-8; experiment: NCI tumour cell line growth inhibition, 48 h
Activity calls are given as the source filed them. Cut-off read from the data, not from the text of the source: active = GI50 up to about 1.1 µM and inactive = higher.
recorded metric: GI50

O=C(O)CC[N+]1=CCC(c2ccccc2)(c2ccccc2)O1 :: > 100 µM (inactive)
[N-]=[N+]=NC1(N=[N+]=[N-])C(=O)NN=C(c2ccccc2)C1=O (stereo not given) :: 82.2 µM (inactive)
COC(=O)C1=C(C)NC(C)=C([N+](=O)[O-])C1c1cccc(N=O)c1 (stereo not given) :: 16.3 µM (inactive)
C/C(=N\NS(=O)(=O)c1ccc(C)cc1)P(=O)(O)O :: > 100 µM (inactive)

Note: attention shifts to another entry.
Value of measured GI50 for the entry OCC(O)C(O)C(O)C(/C=N\Nc1ncnc2ccc(Br)cc12)=N/Nc1ncnc2ccc(Br)cc12 (stereo not given) : 4.01 µM (inactive)

----------
tested on: UACC-62; experiment: NCI tumour cell line growth inhibition, 48 h
Activity calls are given as the source filed them. Rule as the data show it: active = GI50 up to about 1.1 µM and inactive = higher.
recorded metric: GI50

Cc1cc2nc3ccc(N(C)C)cc3[s+]c2cc1N [TOLONIUM CHLORIDE] :: 1.89 µM (inactive)
CSc1nc2c(nc(N)n2C2OCC(O)C(O)C2O)c(=O)n1C (stereo unspecified) :: > 100 µM (inactive)
CC(C)(C)/N=C1\C(=O)C2(C)CCC1C2(C)C (stereo unspecified) :: 14.3 µM (inactive)
O=C(CN1CCCCC1)c1ccc2c(c1)Sc1ccccc1O2 :: 11.5 µM (inactive)
COc1ccc2oc(C(=O)O)c3c2c1CCC3CCC(=O)O (stereo unspecified) :: > 100 µM (inactive)
O=c1c2ccccc2nc(-c2ccccc2)n1/N=C/c1ccccc1[N+](=O)[O-] :: 79.6 µM (inactive)

Value of measured GI50 for the entry Nc1ccc(/C=C/c2ccc3cccnc3c2)cc1 : > 100 µM (inactive)

Value of measured GI50 for the entry O=C(c1ccccc1)C1C[C@H]2CO[C@H](c3ccccc3)N2C1=O (stereo partly specified) : > 100 µM (inactive)

Value of measured GI50 for the entry CCOC(=O)c1ccc(-n2cnc(-c3ccc([N+](=O)[O-])cc3)c2)cc1 : > 100 µM (inactive)

Value of measured GI50 for the entry O=C1Oc2ccccc2C(=O)/C1=C/NC(=S)NCCc1ccccc1 : 26.9 µM (inactive)

Value of measured GI50 for the entry CN1CCN(CCCN)CC1 : > 100 µM (inactive)

----------
system: HT-29; assay: NCI tumour cell line growth inhibition, 48 h
Calls of active or inactive are those of the source. No stated cut-off is given here; in the data, active = GI50 up to about 1.1 µM and inactive = higher.
recorded metric: GI50

Some molecules with known GI50 results, for comparison:
O=C1NC2C=CN(Cc3ccccc3)C=C2C(=O)N2CCCC12 (stereo not given) :: > 100 µM (inactive)
COc1cc(/C=C2\C(=O)N(c3cc(Cl)ccc3Cl)C(c3ccccc3)S2(=O)=O)cc(OC)c1OC (stereo not given) :: 81.5 µM (inactive)
CN(C)/C=N/c1ccc2c3c(cccc13)-c1ccccc1-2 :: 10 µM (inactive)
COc1ccc2oc(=O)c(-c3cc4c(c(C)n3)c(=O)oc3ccc(OC)cc34)cc2c1 :: 80.5 µM (inactive)

Note: attention shifts to another entry.
Value of measured GI50 for the entry CCOc1ccc2c(c1)[n+]([O-])c(-c1ccccc1Cl)c(N)[n+]2[O-] : > 100 µM (inactive)

----------
test system: HCT-116; assay: NCI tumour cell line growth inhibition, 48 h
Active and inactive are the calls of the source. Cut-off read from the data, not from the text of the source: active = GI50 up to about 1.1 µM and inactive = higher.
Use one of these outcomes when replying: label 1 (active), label 0 (inactive)

Observe how each entry below is paired with its result.
CC1=CC[C@@]2(C)CC[C@](O)(C(C)C)C2C(OC(=O)c2ccccc2)C1 (some centres not stated) :: label 0
C=C1CCCC2[C@](C)(CC3=C(Cl)C(=O)C=C(OC)C3=O)C(C)CC[C@]12C (some centres not stated) :: label 0
Cc1cc(S(=O)(=O)NC2=NNC(C)CN2)c(S)cc1Cl (configuration not stated) :: label 0
CCCCCCCCCCCCC(O)C1CCC(C(O)CCCCCCC(O)CCCCCCCC2=CC(C)OC2=O)O1 (configuration not stated) :: label 1
COCN1C(=O)[C@@H]2CCCN2C(=O)c2cc(OC)c(Cc3ccccc3)cc21 :: label 0

Field: next compound
Call for entry CCOC(=O)C(NC(=O)CC)(Nc1ccc(S(=O)(=O)Nc2onc(C)c2C)cc1)C(F)(F)F (configuration not stated) :
label 0

----------
test system: RXF 393; test: NCI tumour cell line growth inhibition, 48 h
Activity calls are given as the source filed them. Cut-off read from the data, not from the text of the source: active = GI50 up to about 1.1 µM and inactive = higher.
Use one of these outcomes when replying: active, inactive

Observe how each entry below is paired with its result.
C/C(=N\N=C(/S)SCc1ccccc1)c1ccccn1 :: inactive
COC(=O)C1(C(=O)OC)C/C(C)=C(/C)SCCCS1 :: inactive

Call for entry O=C(NNc1ccc([N+](=O)[O-])cc1[N+](=O)[O-])/C(O)=C\C(=O)c1ccccc1 :
inactive

Call for entry Cc1cc2nc(CC(C(F)(F)F)C(F)(F)F)oc2cc1C :
inactive

Call for entry CC(C)=CCNc1ncnc2c1ncn2CCC#N :
inactive

Call for entry CC(=O)O/N=C/c1cc2c(cc1Br)OCO2 :
inactive

Call for entry Cc1ccc(/C=C2/N/C(=N\N=C/c3ccccc3)NC2=O)cc1 :
inactive

----------
system: M19-MEL; assay: NCI tumour cell line growth inhibition, 48 h
Active and inactive are the calls of the source. No stated cut-off is given here; in the data, active = GI50 up to about 1.1 µM and inactive = higher. Starred links: 1 amine or outer side, 2 acyl side, 3 side chain; linkers in the order of their positions; H or OH if unused. Non-standard residues stand in square brackets, D forms with d. Residues, ends and D or L forms follow the SMILES beside them. ξ: configuration not given here. X24 = O=C(C(CC(O)CO)O[*:1])[*:2]; Ile(3ξ) = CCC(C)[C@H](N)C(=O)O; NMeV = CN[C@H](C(=O)O)C(C)C; NMeA = CN[C@@H](C)C(=O)O; βAla = NCCC(=O)O
Listed here are molecules together with their documented GI50.

CCCCCCCCOCC(O)COC(C)C (stereo unspecified) :: 45.5 µM (inactive)
CCC(C)[C@@H]1NC(=O)[C@@H]2CCCN2C(=O)C(CC(O)CO)OC(=O)CCNC(=O)[C@H](C)N(C)C(=O)[C@H](C(C)C)N(C)C1=O (stereo partly specified) (cyclo([Ile(3ξ)][NMeV][NMeA][βAla][X24]P)) :: > 100 µM (inactive)
COc1cc2c3c(c1OC)-c1ccccc1C(C(O)c1ccccc1)C3N(C)CC2 (stereo unspecified) :: 27.8 µM (inactive)
CC1(c2cc3c(cc2Br)OCO3)SCCCS1 :: 39.6 µM (inactive)
CSc1nc2c(nc(N)n2C2OCC(O)C(O)C2O)c(=O)n1C (stereo unspecified) :: > 100 µM (inactive)
COC(=O)CC(=O)C[P+](c1ccccc1)(c1ccccc1)c1ccccc1 :: 209 µM (inactive)
CCCCNC(=O)C1C2CCC(O2)C1C(=O)O (stereo unspecified) :: 19.3 µM (inactive)
O=C(O)/C=C/c1ccncc1 :: > 100 µM (inactive)
CN(C)CCc1ccc(Cl)cc1Cl :: > 100 µM (inactive)
CCOC(=O)C1=C(C)N(NC(N)=O)C(C)(O)C12CCOC2=O (stereo unspecified) :: > 100 µM (inactive)

Value of measured GI50 for the entry CC(=O)C(=Cc1cn(C)c(=O)n(C)c1=O)C(C)=O : 109 µM (inactive)

Value of measured GI50 for the entry COc1ccc(C(=O)C(c2ccc(OC)cc2)C2C(=O)Oc3ccccc32)cc1 (stereo unspecified) : > 10 µM (inactive)

Value of measured GI50 for the entry COc1ccc2oc(C(=O)O)c3c2c1CCC3CCC(=O)O (stereo unspecified) : > 100 µM (inactive)

Value of measured GI50 for the entry Cc1ccccc1Nc1nc2c(s1)C(=O)c1ccccc1C2=O : 1.95 µM (inactive)

Value of measured GI50 for the entry O=C1NC2C=CN(Cc3ccccc3)C=C2C(=O)N2CCCC12 (stereo unspecified) : > 100 µM (inactive)

Value of measured GI50 for the entry C#Cc1c(C)c(/C=C/C(C)=C/C=C/C(C)=C/C(=O)OC)n(C)c1C : > 100 µM (inactive)

Value of measured GI50 for the entry COc1cc(C)c(C(=O)/C=C/c2cc(OC)c(O)c(OC)c2)cc1O : 19.3 µM (inactive)

Value of measured GI50 for the entry Cc1ccc(NC(=O)/C(C#N)=C/c2ccccc2)c(C)c1 : > 100 µM (inactive)

Value of measured GI50 for the entry O=C(O)c1cc2ccc(Cl)cc2c(O)c1C1=CCCCC1 : 35.8 µM (inactive)

Value of measured GI50 for the entry O=C1Nc2ccc(Br)cc2/C1=N/Nc1ccc([N+](=O)[O-])cc1 : 17.1 µM (inactive)

Value of measured GI50 for the entry O=C(O)CCSCCCN1C(=O)c2ccccc2C1=O : > 100 µM (inactive)
